Reference source: ChEMBL document CHEMBL1159205

molecules and their reported MIC
- Species: Bos taurus
- method notes: Inhibition of calf DNA polymerase alpha assessed as incorporation of [3H]dTTP

>  <molecular string>
CC(C)=CCC[C@@H](C)[C@H]1CC[C@@]2(C)C3=C([C@H](O)C[C@]12C)[C@]1(C)[C@@H](CC3=O)[C@@](C)(C(=O)O)[C@@H](O)C[C@H]1O

>  <MIC (µM)>
75

$$$$
>  <molecular string>
CC(C)=CCC[C@@H](C)[C@H]1CC[C@@]2(C)C3=C(CC[C@]12C)[C@]1(C)[C@@H](CC3=O)[C@@](C)(C(=O)O)[C@@H](O)C[C@H]1O

>  <MIC (µM)>
30

$$$$
>  <molecular string>
CO[C@@H]1C[C@]2(C)[C@@H]([C@H](C)CCC=C(C)C)CC[C@@]2(C)C2=C1[C@]1(C)[C@@H](CC2=O)[C@@](C)(C(=O)O)[C@@H](O)C[C@H]1O

>  <MIC (µM)>
75

$$$$
>  <molecular string>
CC(C)=CCC[C@@H](C)[C@H]1CC[C@@]2(C)C3=C(CC[C@]12C)[C@]1(C)[C@@H](CC3=O)[C@@](C)(C(=O)O)[C@H](O)C[C@H]1O

>  <MIC (µM)>
35

$$$$

---

- study system: DNA polymerase beta (Rattus norvegicus) (UniProt P06766)
- method notes: Inhibition of rat DNA polymerase beta assessed as incorporation of [3H]dTTP

>  <molecular string>
CC(C)=CCC[C@@H](C)[C@H]1CC[C@@]2(C)C3=C(CC[C@]12C)[C@]1(C)[C@@H](CC3=O)[C@@](C)(C(=O)O)[C@H](O)C[C@H]1O

>  <study system>
DNA polymerase beta (Rattus norvegicus) (UniProt P06766)

>  <MIC / µM>
95

$$$$
>  <molecular string>
CC(C)=CCC[C@@H](C)[C@H]1CC[C@@]2(C)C3=C(CC[C@]12C)[C@]1(C)[C@@H](CC3=O)[C@@](C)(C(=O)O)[C@@H](O)C[C@H]1O

>  <study system>
DNA polymerase beta (Rattus norvegicus) (UniProt P06766)

>  <MIC / µM>
90

$$$$
>  <molecular string>
CC(C)=CCC[C@@H](C)[C@H]1CC[C@@]2(C)C3=C([C@H](O)C[C@]12C)[C@]1(C)[C@@H](CC3=O)[C@@](C)(C(=O)O)[C@@H](O)C[C@H]1O

>  <study system>
DNA polymerase beta (Rattus norvegicus) (UniProt P06766)

>  <MIC / µM>
125

$$$$
>  <molecular string>
CO[C@@H]1C[C@]2(C)[C@@H]([C@H](C)CCC=C(C)C)CC[C@@]2(C)C2=C1[C@]1(C)[C@@H](CC2=O)[C@@](C)(C(=O)O)[C@@H](O)C[C@H]1O

>  <study system>
DNA polymerase beta (Rattus norvegicus) (UniProt P06766)

>  <MIC / µM>
130

$$$$
